- tested on: human topoisomerase II (Homo sapiens)
pIC50: −log10 of the molar value.
parameter measured: pIC50

compound	parameter measured	reported
Cl.NC1CCN(c2c(F)cc3c(=O)c(C(=O)O)cn4c3c2Oc2cc3ccccc3cc2-4)C1 (stereo not shown) [Compound 3b]	pIC50	6.38
Cl.NC1CCN(c2c(F)cc3c(=O)c(C(=O)O)cn4c3c2Oc2c-4ccc3ccccc23)C1 (racemic) [Compound 2a]	pIC50	6.26
Cl.NC1CCN(c2c(F)cc3c(=O)c(C(=O)O)cn4c3c2Oc2cc3ccccc3cc2-4)C1 (stereo not shown) [Compound 3c]	pIC50	6.36
Cl.NC1CCN(c2c(F)cc3c(=O)c(C(=O)O)cn4c3c2Oc2c-4ccc3ccccc23)C1 (stereo not shown) [Compound 2c]	pIC50	6.31

---

- System: H226 non-small-cell lung
- method: Cancer cell growth inhibition assay (MTT)
- Format: cell-based, human
- run conditions: Homo sapiens, NCI-H226
parameter measured: pIC50
Worth noting: pIC50 values are minus log10 of concentrations stated in mol/L.

Problem: So what does the record say about pIC50 for N[C@H]1CCN(c2c(F)cc3c(=O)c(C(=O)O)cn4c3c2Oc2ccccc2-4)C1 [Compound A-62176, reference compound] ?
Solution: 7.05

---

- Tested on: Raji lymphoma
- method: Cancer cell growth inhibition assay (MTT)
- Format: cell-based, human
- run conditions: Homo sapiens, Raji
parameter measured: pIC50
Worth noting: pIC50 values are minus log10 of concentrations stated in mol/L.

Problem: Notebook entry, Raji lymphoma assay: pIC50 of N[C@H]1CCN(c2c(F)cc3c(=O)c(C(=O)O)cn4c3c2Oc2ccccc2-4)C1 [Compound A-62176, reference compound] = ?
Solution: 7.30

---

- Test system: H226 non-small-cell lung
- method: Cancer cell growth inhibition assay (MTT)
- Assay type: cell-based, human
parameter measured: IC50 (nM)

compound	parameter measured	reported
NC1CCN(c2c(F)cc3c(=O)c(C(=O)O)cn4c3c2Oc2ccc3ccccc3c2-4)C1 (racemic) [Compound 1a]	IC50	140
Cl.NC1CCN(c2c(F)cc3c(=O)c(C(=O)O)cn4c3c2Oc2c-4ccc3ccccc23)C1 (racemic) [Compound 2a]	IC50	22
O=C(O)c1cn2c3c(c(N4CCNCC4)c(F)cc3c1=O)Oc1c-2ccc2ccccc12 [Compound 5]	IC50	200
Cl.NC1CCN(c2c(F)cc3c(=O)c(C(=O)O)cn4c3c2Oc2c-4ccc3ccccc23)C1 (stereo not drawn) [Compound 2b]	IC50	13

[1] Cl.NC1CCN(c2c(F)cc3c(=O)c(C(=O)O)cn4c3c2Oc2ccc3ccccc3c2-4)C1 (stereo not drawn) [Compound 1b]
[2] NC1CCN(c2c(F)cc3c(=O)c(C(=O)O)cn4c3c2Oc2cc3ccccc3cc2-4)C1 (racemic) [Compound 3a]
Problem: Of 1 and 2 , whose reported IC50 is the larger number? // caller expects the label of the chosen entry
Solution: 1

---

We begin with a simple list: items and their reported DNA unwinding concn.
- Tested on: supercoiled pHOT1 DNA
- method: DNA unwinding assay
- Type: biochemical
- run conditions: concentration shifting topoisomers to the middle position between relaxed and supercoiled bands
// units = µM; emit number, no label

These recorded examples may help you get a feel for the data.
molecule	display unit	DNA unwinding concn
Cl.NC1CCN(c2c(F)cc3c(=O)c(C(=O)O)cn4c3c2Oc2ccc3ccccc3c2-4)C1 (stereo not shown) [Compound 1b]	µM	35
Cl.NC1CCN(c2c(F)cc3c(=O)c(C(=O)O)cn4c3c2Oc2ccc3ccccc3c2-4)C1 (stereo not shown) [Compound 1c]	µM	19

Problem: So what does the record say about DNA unwinding concn for N[C@H]1CCN(c2c(F)cc3c(=O)c(C(=O)O)cn4c3c2Oc2ccccc2-4)C1 [Compound A-62176, reference compound] ?
Solution: 50

Problem: So what does the record say about DNA unwinding concn for Cl.NC1CCN(c2c(F)cc3c(=O)c(C(=O)O)cn4c3c2Oc2c-4ccc3ccccc23)C1 (stereo not shown) [Compound 2c] ?
Solution: 10

Problem: So what does the record say about DNA unwinding concn for Cl.NC1CCN(c2c(F)cc3c(=O)c(C(=O)O)cn4c3c2Oc2cc3ccccc3cc2-4)C1 (stereo not shown) [Compound 3b] ?
Solution: 15

Problem: So what does the record say about DNA unwinding concn for Cl.NC1CCN(c2c(F)cc3c(=O)c(C(=O)O)cn4c3c2Oc2c-4ccc3ccccc23)C1 (stereo not shown) [Compound 2b] ?
Solution: 3

Problem: So what does the record say about DNA unwinding concn for Cl.NC1CCN(c2c(F)cc3c(=O)c(C(=O)O)cn4c3c2Oc2cc3ccccc3cc2-4)C1 (stereo not shown) [Compound 3c] ?
Solution: 13

---

- System: HT-29 colon
- method: Cancer cell growth inhibition assay (MTT)
- Format: cell-based, human
parameter measured: IC50 (nM)

These recorded examples may help you get a feel for the data.
compound	IC50, nM
NC1CCN(c2c(F)cc3c(=O)c(C(=O)O)cn4c3c2Oc2cc3ccccc3cc2-4)C1 (racemic)	28
Cl.NC1CCN(c2c(F)cc3c(=O)c(C(=O)O)cn4c3c2Oc2c-4ccc3ccccc23)C1 (stereo not drawn) [Compound 2b]	26
O=C(O)c1cn2c3c(c(N4CCNCC4)c(F)cc3c1=O)Oc1cc3ccccc3cc1-2	6800
Cl.NC1CCN(c2c(F)cc3c(=O)c(C(=O)O)cn4c3c2Oc2ccc3ccccc3c2-4)C1 (stereo not drawn) [Compound 1c]	270

[a] Cl.NC1CCN(c2c(F)cc3c(=O)c(C(=O)O)cn4c3c2Oc2ccc3ccccc3c2-4)C1 (stereo not drawn) [Compound 1b]
[b] Cl.NC1CCN(c2c(F)cc3c(=O)c(C(=O)O)cn4c3c2Oc2cc3ccccc3cc2-4)C1 (stereo not drawn) [Compound 3c]
[c] O=C(O)c1cn2c3c(c(N4CCNCC4)c(F)cc3c1=O)Oc1ccc3ccccc3c1-2
[d] Cl.NC1CCN(c2c(F)cc3c(=O)c(C(=O)O)cn4c3c2Oc2c-4ccc3ccccc23)C1 (stereo not drawn) [Compound 2c]
[e] NC1CCN(c2c(F)cc3c(=O)c(C(=O)O)cn4c3c2Oc2ccc3ccccc3c2-4)C1 (racemic)
Problem: Please produce an ascending ranking of these compounds based on IC50. Put the labels in the requested order and write them down.
Solution: b, d, e, a, c

---

pIC50: −log10 of the molar value.
The following molecules have recorded pIC50 on human topoisomerase II (Homo sapiens, UniProt P11388).
Sequence (P11388 whole entry): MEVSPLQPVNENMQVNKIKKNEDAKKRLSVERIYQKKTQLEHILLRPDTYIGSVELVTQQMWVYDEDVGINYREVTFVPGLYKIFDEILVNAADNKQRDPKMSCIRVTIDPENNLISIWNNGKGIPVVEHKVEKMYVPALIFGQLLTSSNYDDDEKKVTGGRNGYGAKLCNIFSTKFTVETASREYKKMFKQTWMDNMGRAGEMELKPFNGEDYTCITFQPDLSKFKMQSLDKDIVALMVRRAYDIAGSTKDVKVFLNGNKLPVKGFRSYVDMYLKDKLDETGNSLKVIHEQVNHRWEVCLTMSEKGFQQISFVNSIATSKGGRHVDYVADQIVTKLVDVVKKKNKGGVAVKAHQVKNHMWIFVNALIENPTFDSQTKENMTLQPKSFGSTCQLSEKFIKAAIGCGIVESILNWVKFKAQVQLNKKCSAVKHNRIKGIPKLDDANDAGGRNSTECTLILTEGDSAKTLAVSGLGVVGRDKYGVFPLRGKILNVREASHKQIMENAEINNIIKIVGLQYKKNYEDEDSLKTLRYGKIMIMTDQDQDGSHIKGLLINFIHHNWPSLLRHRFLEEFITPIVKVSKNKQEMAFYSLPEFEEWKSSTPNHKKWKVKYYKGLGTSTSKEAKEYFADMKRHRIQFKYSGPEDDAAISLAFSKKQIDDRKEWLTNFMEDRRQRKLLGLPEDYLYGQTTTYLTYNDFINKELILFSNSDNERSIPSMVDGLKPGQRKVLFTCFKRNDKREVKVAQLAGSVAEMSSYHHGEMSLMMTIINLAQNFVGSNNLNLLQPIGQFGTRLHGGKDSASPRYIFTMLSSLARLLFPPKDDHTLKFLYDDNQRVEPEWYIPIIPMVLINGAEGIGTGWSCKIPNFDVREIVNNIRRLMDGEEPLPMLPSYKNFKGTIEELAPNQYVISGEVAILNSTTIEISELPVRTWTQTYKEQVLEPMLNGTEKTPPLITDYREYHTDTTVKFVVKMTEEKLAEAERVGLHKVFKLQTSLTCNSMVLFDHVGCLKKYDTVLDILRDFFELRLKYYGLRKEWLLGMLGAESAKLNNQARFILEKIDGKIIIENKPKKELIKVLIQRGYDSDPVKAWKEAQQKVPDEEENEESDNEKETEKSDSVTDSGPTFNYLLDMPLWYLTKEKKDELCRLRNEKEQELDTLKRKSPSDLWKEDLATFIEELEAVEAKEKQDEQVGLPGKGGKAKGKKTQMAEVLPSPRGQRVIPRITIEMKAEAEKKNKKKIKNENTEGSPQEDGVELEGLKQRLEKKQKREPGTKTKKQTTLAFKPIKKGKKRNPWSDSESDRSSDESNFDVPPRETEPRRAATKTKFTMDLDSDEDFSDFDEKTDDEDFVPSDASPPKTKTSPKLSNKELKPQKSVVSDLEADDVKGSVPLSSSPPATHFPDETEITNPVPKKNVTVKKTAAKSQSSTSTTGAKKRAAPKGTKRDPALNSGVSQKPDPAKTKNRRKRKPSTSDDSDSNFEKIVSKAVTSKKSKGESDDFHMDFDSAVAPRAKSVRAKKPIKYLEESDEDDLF
parameter measured: pIC50

molecule	pIC50
NC1CCN(c2c(F)cc3c(=O)c(C(=O)O)cn4c3c2Oc2ccc3ccccc3c2-4)C1 (racemic)	6.11
Cl.NC1CCN(c2c(F)cc3c(=O)c(C(=O)O)cn4c3c2Oc2ccc3ccccc3c2-4)C1 (stereo not drawn)	6.14
N[C@H]1CCN(c2c(F)cc3c(=O)c(C(=O)O)cn4c3c2Oc2ccccc2-4)C1 [Compound A-62176, reference compound]	6.29

---

- Tested on: H226 non-small-cell lung
- method: Cancer cell growth inhibition assay (MTT)
- Type: cell-based, human
parameter measured: IC50 (nM)

molecule	IC50, nM
Cl.NC1CCN(c2c(F)cc3c(=O)c(C(=O)O)cn4c3c2Oc2cc3ccccc3cc2-4)C1 (stereo not drawn) [Compound 3c]	14
Cl.NC1CCN(c2c(F)cc3c(=O)c(C(=O)O)cn4c3c2Oc2c-4ccc3ccccc23)C1 (stereo not drawn) [Compound 2c]	27
Cl.NC1CCN(c2c(F)cc3c(=O)c(C(=O)O)cn4c3c2Oc2cc3ccccc3cc2-4)C1 (stereo not drawn) [Compound 3b]	22

[P] O=C(O)c1cn2c3c(c(N4CCNCC4)c(F)cc3c1=O)Oc1ccc3ccccc3c1-2
[Q] Cl.NC1CCN(c2c(F)cc3c(=O)c(C(=O)O)cn4c3c2Oc2ccc3ccccc3c2-4)C1 (stereo not drawn) [Compound 1c]
Problem: Of P and Q , whose reported IC50 is the larger number? // caller expects the label of the chosen entry
Solution: P

---

- Tested on: supercoiled pHOT1 DNA
- method: DNA unwinding assay
- Assay type: biochemical
- run conditions: concentration shifting topoisomers to the middle position between relaxed and supercoiled bands
We begin with a simple list: items and their reported DNA unwinding concn.

These recorded examples may help you get a feel for the data.
molecule	parameter measured	reported
O=C(O)c1cn2c3c(c(N4CCNCC4)c(F)cc3c1=O)Oc1ccc3ccccc3c1-2 [Compound 4]	DNA unwinding concn	>100 µM
O=C(O)c1cn2c3c(c(N4CCNCC4)c(F)cc3c1=O)Oc1cc3ccccc3cc1-2 [Compound 6]	DNA unwinding concn	>100 µM

Please look at the following molecule next.
Problem: Notebook entry, supercoiled pHOT1 DNA assay: DNA unwinding concn of O=C(O)c1cn2c3c(c(N4CCNCC4)c(F)cc3c1=O)Oc1c-2ccc2ccccc12 [Compound 5] = ?
Solution: >100 µM

---

- System: HT-29 colon
- method: Cancer cell growth inhibition assay (MTT)
- Assay type: cell-based, human
parameter measured: IC50 (nM)

compound	tested on	display unit	IC50
Cl.NC1CCN(c2c(F)cc3c(=O)c(C(=O)O)cn4c3c2Oc2cc3ccccc3cc2-4)C1 (stereo not drawn) [Compound 3b]	HT-29 colon	nM	22

[1] O=C(O)c1cn2c3c(c(N4CCNCC4)c(F)cc3c1=O)Oc1c-2ccc2ccccc12
[2] Cl.NC1CCN(c2c(F)cc3c(=O)c(C(=O)O)cn4c3c2Oc2c-4ccc3ccccc23)C1 (racemic) [Compound 2a]
Problem: Of 1 and 2 , whose reported IC50 is the larger number? // caller expects the label of the chosen entry
Solution: 1
(1: 360 nM, 2: 30 nM)
